protocol.description: Quantitative High-Throughput drug screen in 47 multiple myeloma cell lines against the NCATS MIPE library collection: Karpas620_DSMZ cell viability assay (AID 1918959); also: nearly all actives have a fitted effect of over 30% in size
test.settings: Karpas620 myeloma viability, CellTiter-Glo ATP luminescence, 48 h; series mostly up to 45.8 µM
Inconclusive results are not listed. The source made the active and inactive calls. Calls follow the shape of the dose curve; as a rule, active = well fitted cell-killing curve with a large enough effect; inconclusive = small, poorly fitted or top-dose-only effect, or effect the other way; inactive = no such curve, though single readings can be large or run the other way.
Outcomes you can answer with include only these: active, inactive

Record excerpt, results attached:
{"compound": "COc1ccc(CCC(=O)c2c(O)cc(O[C@@H]3O[C@H](CO)[C@@H](O)[C@H](O)[C@@H]3O[C@@H]3O[C@@H](C)[C@H](O)[C@@H](O)[C@@H]3O)cc2O)cc1O", "group.label": "inactive"}
{"compound": "CN(C)CC[C@H](c1ccc(Cl)cc1)c1ccccn1", "group.label": "inactive"}
{"compound": "O=C(O)[C@H](CC(=O)N1C[C@@H]2CCCC[C@H]2C1)Cc1ccccc1", "group.label": "inactive"}
{"compound": "N#CC(=Cc1ccc(O)c(O)c1)C(=O)NCc1ccccc1", "group.label": "inactive"}
{"compound": "COc1cc([C@@H]2c3cc4c(cc3[C@@H](O[C@@H]3O[C@@H]5CO[C@@H](c6cccs6)O[C@@H]5[C@H](O)[C@@H]3O)[C@H]3COC(=O)[C@H]23)OCO4)cc(OC)c1O", "group.label": "active"}
{"compound": "C=C(C)[C@@H]1CC[C@]2(C(=O)O)CC[C@]3(C)[C@H](CC[C@@H]4[C@@]5(C)CC[C@H](O)C(C)(C)[C@@H]5CC[C@]43C)[C@@H]12", "group.label": "inactive"}
{"compound": "COc1cccc2c1C(=O)c1c(O)c3c(c(O)c1C2=O)C[C@@](O)(C(=O)CO)C[C@@H]3O[C@H]1C[C@H](N)[C@H](OC2CCCCO2)[C@H](C)O1 (some centres undefined)", "group.label": "inactive"}
{"compound": "CC(C=CC(=O)NO)=C[C@@H](C)C(=O)c1ccc(N(C)C)cc1", "group.label": "active"}

Q) Check the results log: what was the call for `C[C@@]12C(=O)OC(=O)[C@@]1(C)C1CCC2O1` ?
A) active

Q) Next up: `CNC(=O)c1ccc(Nc2cc(Nc3ccccc3S(=O)(=O)C(C)C)c3cc[nH]c3n2)nc1`
A) active

Q) Next up: `O=[N+]([O-])c1cn2c(n1)OC[C@@H](OCc1ccc(OC(F)(F)F)cc1)C2`
A) inactive

Q) Next up: C[C@@H]1C(=O)O[C@H]2CC34[C@H]5C[C@@H](C(C)(C)C)C36[C@H](OC(=O)[C@@H]6O)O[C@@]4(C(=O)O5)[C@]21O (some centres undefined)
A) inactive

Q) Next up: `CC(C)(O)Cn1c(NC(=O)c2ccc(-c3cn[nH]c3)s2)nc2cc(CN3CCOCC3)ccc21`
A) active

Q) Next up: `CC(C=CC=C(C)C=CC1=C(C)CCCC1(C)C)=CC=CC=C(C)C=CC=C(C)C=CC1=C(C)CCCC1(C)C`
A) active
